Target: T1, monomeric SARS-CoV-2 receptor binding domain (RBD-H6) (SARS-CoV-2, UniProt P0DTC2 319-541)
T1 construct: Made in HEK293-6E cells; also called RBD Spike; monomeric RBD
Assay: ELISA screen
Property Measured: Mean normalized OD (OD)
Write the answer as a number in OD, unit excluded.

Ly75_3 CRD-mouse IgG2a-Fc fusion protein (Fc fusion) KDAESDKLCPPDEGWKRHGETCYKIYEKEAPFGTNCNLTITSRFEQEFLNYMMKNYDKSLRKYFWTGLRDPDSRGEYSWAVAQGVKQAVTFSNWNFLEPASPGGCVAMSTGKTLGKWEVKNCRSFRALSICKKGGGSGGGSGGGS ... 0.001

Report Mean normalized OD for Mrc1_6 CRD-mouse IgG2a-Fc fusion protein (Fc fusion) YKNKCFKIFGFANEEKKSWQDARQACKGLKGNLVSIENAQEQAFVTYHMRDSTFNAWTGLNDINAEHMFLWTAGQGVHYTNWGKGYPGGRRSSLSYEDADCVVVIGGNSREAGTWMDDTCDSKQGYICQGGGSGGGSGGGS please.
0.004

Report Mean normalized OD for Pla2r1_8 CRD-mouse IgG2a-Fc fusion protein (Fc fusion) FKGNCYSFSTVLDSRSFEDAHEFCKSEGSNLLAIRDAAENSFLLEELLAFGSSVQMVWLNAQFDNNNKTLRWFDGTPTEQSNWGLRKPDMDHLKPHPCVVLRIPEGIWHFTPCEDKKGFICKGGGSGGGSGGGS please.
0.019

Report Mean normalized OD for Lgals4_2 CRD-mouse IgG2a-Fc fusion protein (Fc fusion) YVGALQGGLTVRRTIIIKGYVLPTARNFVINFKVGSSGDIALHLNPRIGDSVVRNSFMNGSWGAEERKVAYNPFGPGQFFDLSIRCGMDRFKVFANGQHLFDFSHRFQAFQMVDTLEINGDITLSYVQIGGGSGGGSGGGS please.
0.014
